- target_of_assay: T1, biotin-labeled human ADM (human, not fully specified; biotin label (named human ADM-C-biotin in Example 1.4; position of the biotin not stated for the other lots))
- T1 construct: Synthetic peptide; also called human ADM-C-biotin; hADM-Biotin
- T1 peptide: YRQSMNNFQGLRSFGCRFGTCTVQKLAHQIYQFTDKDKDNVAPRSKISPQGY
- assay_comment: BLI (Octet RED96e), as in Example 3
- Protocol: The affinity of antibodies 2004hz00, 2004hz97, and 2004hz99 for biotin-labeled human and mouse ADM (human ADM Cat. No. 894757, mouse ADM Cat. No. 894758, synthesized by GLBiochem) was determined by adopting Octet RED96e (Fortebio). […] The equilibrium dissociation constants (KD) of the antibodies were calculated by measuring the association rates (Kon) and the dissociation rates (Koff) of the antigen-antibody in a 1:1 binding manner by adopting the Data Analysis 12.0 software from Fortebio. […]
Listed binders paired with reported kon
Provide only the numeric value, understood in M⁻¹ s⁻¹.

{"columns": ["binder", "kon / M⁻¹ s⁻¹"],
 "data": [
  ["Ab2004.Am40 (IgG1 antibody) (antibody, V domains shown, Expressed in CHO cells, human IgG1/kappa) VH: QVQLVQSGAEVKKPGASVKVSCKASGYTFTQYGIAWVRQAPGQGLEWMGWISAYQGNTNYAQKLQGRVTMTRDTSTSTAYMELRSLRSDDTAVYYCAREGRWGGSFNIWGQGTMVTVSS VL: DIQMTQSPSSLSASVGDRVTITCRASQGISSYLAWYQQKPGKAPKLLIYDASNLETGVPSRFSGSGSGTDFTFTISSLQPEDIATYYCQQYDDLPLSFGGGTKVEIKR", 449000]
]}

Read the next record carefully.
The recorded kon for entry Ab2004.Am32 (IgG1 antibody) (antibody, V domains shown, Expressed in CHO cells, human IgG1/kappa) VH: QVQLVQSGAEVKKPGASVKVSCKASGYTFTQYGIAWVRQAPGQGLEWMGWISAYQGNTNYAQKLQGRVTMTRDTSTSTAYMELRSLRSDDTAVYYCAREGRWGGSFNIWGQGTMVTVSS VL: DIQMTQSPSSLSASVGDRVTITCRAAEGIGSYLAWYQQKPGKAPKLLIYDASNLETGVPSRFSGSGSGTDFTFTISSLQPEDIATYYCQQYDNLPLTFGGGTKVEIKR equals 430000
